Would you mind telling me the reported Papp at 1 h, 40 μM of each entry?
assay: Permeability (bidirectional transport) of flavonoids in Caco-2 cell monolayers; format: in vitro ADME; settings: human, Caco-2, pH 7.4, as stated in text, direction not specified (bilateral), Caco-2 monolayer

[ask] Entry COc1ccc(CCC(=O)c2c(O)cc(O[C@@H]3O[C@H](CO)[C@@H](O)[C@H](O)[C@H]3O[C@@H]3O[C@@H](C)[C@H](O)[C@@H](O)[C@H]3O)cc2O)cc1O [Compound 30, Neohesperidin dihydrochalcone] : reported Papp at 1 h, 40 μM = ?
[reply] < 6 ×10⁻⁶ cm/s

[ask] Also C[C@@H]1O[C@@H](O[C@H]2[C@H](Oc3cc(O)c4c(c3)O[C@H](c3ccc(O)cc3)CC4=O)O[C@H](CO)[C@@H](O)[C@@H]2O)[C@H](O)[C@H](O)[C@H]1O [Compound 20, Naringin] ?
[reply] < 6 ×10⁻⁶ cm/s

[ask] Also COc1ccc(-c2coc3cc(O)ccc3c2=O)cc1 [Compound 23, Formononetin] ?
[reply] > 10 ×10⁻⁶ cm/s

[ask] Also O=C1C[C@@H](c2ccc(O)cc2)Oc2cc(O)ccc21 [Compound 21, Liquiritigenin] ?
[reply] > 30 ×10⁻⁶ cm/s

[ask] Also O=c1cc(-c2ccccc2)oc2cc(O)c(O)c(O)c12 [Compound 4, Baicalein] ?
[reply] < 2 ×10⁻⁶ cm/s

[ask] Also COc1cc2c(=O)c(-c3ccc(O)cc3)coc2cc1O [Compound 25, Glycitein] ?
[reply] > 10 ×10⁻⁶ cm/s

[ask] Also O=c1c(-c2ccc(O)cc2)coc2c([C@@H]3O[C@H](CO)[C@@H](O)[C@H](O)[C@H]3O)c(O)ccc12 [Compound 24, Puerarin] ?
[reply] < 6 ×10⁻⁶ cm/s

[ask] Also COc1ccc([C@@H]2CC(=O)c3c(O)cc(O)cc3O2)cc1O [Compound 18, Hesperetin] ?
[reply] > 20 ×10⁻⁶ cm/s

[ask] Also O=C1c2c(O)cc(O)cc2OC(c2ccc(O)c(O)c2)C1O (centres unmarked) [Compound 22, Taxifolin] ?
[reply] > 20 ×10⁻⁶ cm/s

[ask] Also COc1ccc(-c2coc3cc(O)cc(O)c3c2=O)cc1 [Compound 28, Biochanin A] ?
[reply] > 10 ×10⁻⁶ cm/s

[ask] Also C[C@@H]1O[C@@H](OC[C@H]2O[C@@H](Oc3c(-c4ccc(O)c(O)c4)oc4cc(O)cc(O)c4c3=O)[C@H](O)[C@@H](O)[C@@H]2O)[C@H](O)[C@H](O)[C@H]1O [Compound 17, Rutin] ?
[reply] < 6 ×10⁻⁶ cm/s

[ask] Also O=c1c(-c2ccc(O)cc2)coc2cc(O)ccc12 [Compound 26, Daidzein] ?
[reply] > 30 ×10⁻⁶ cm/s

[ask] Also O=c1cc(-c2ccc(O)cc2)oc2c([C@@H]3OC[C@H](O)[C@H](O)[C@H]3O)c(O)c([C@@H]3O[C@H](CO)[C@@H](O)[C@H](O)[C@H]3O)c(O)c12 [Compound 8, Schaftoside] ?
[reply] < 6 ×10⁻⁶ cm/s

[ask] Also O=C1C[C@@H](c2ccc(O)cc2)Oc2cc(O)cc(O)c21 [Compound 19, Naringenin] ?
[reply] > 30 ×10⁻⁶ cm/s

---

assay: Permeability (bidirectional transport) of flavonoids in Caco-2 cell monolayers; assay type: in vitro ADME; settings: human, Caco-2, basolateral to apical, incubation 60 min, 37 °C, D-Hank's pH 7.4, mean ± SD, n = 3–6
Rule: measured Papp B→A at 60 min, 40 μM below 20 ×10⁻⁶ cm/s gets 1.0; anything equal to or greater than 20 ×10⁻⁶ cm/s gets 0.0.

[ask] Hello, I'm reviewing records and need to know if Papp B→A at 60 min, 40 μM of O=C1c2c(O)cc(O)cc2OC(c2ccc(O)c(O)c2)C1O (stereo not drawn) is below 20 ×10⁻⁶ cm/s. Could you check?
[reply] 0.0

[ask] Also `COc1c(O)cc(O)c2c(=O)cc(-c3ccccc3)oc12` ?
[reply] 1.0

[ask] Also `COc1ccc(-c2cc(=O)c3c(OC)c(OC)c(OC)c(OC)c3o2)cc1` ?
[reply] 0.0

[ask] Also `C[C@@H]1O[C@@H](Oc2c(-c3ccc(O)c(O)c3)oc3cc(O)cc(O)c3c2=O)[C@H](O)[C@H](O)[C@H]1O` ?
[reply] 1.0

[ask] Also `C[C@@H]1O[C@@H](OC[C@H]2O[C@@H](Oc3c(-c4ccc(O)c(O)c4)oc4cc(O)cc(O)c4c3=O)[C@H](O)[C@@H](O)[C@@H]2O)[C@H](O)[C@H](O)[C@H]1O` ?
[reply] 1.0

[ask] Also `O=c1c(O)c(-c2ccc(O)cc2O)oc2cc(O)cc(O)c12` ?
[reply] 0.0

[ask] Also COc1ccc(CCC(=O)c2c(O)cc(O[C@@H]3O[C@H](CO)[C@@H](O)[C@H](O)[C@H]3O[C@@H]3O[C@@H](C)[C@H](O)[C@@H](O)[C@H]3O)cc2O)cc1O [Compound 30, Neohesperidin dihydrochalcone] ?
[reply] 1.0

[ask] Also `COc1ccc(-c2coc3cc(O)cc(O)c3c2=O)cc1` ?
[reply] 1.0

[ask] Also `O=c1c(O)c(-c2ccc(O)c(O)c2)oc2cc(O)cc(O)c12` ?
[reply] 1.0

[ask] Also `O=c1cc(-c2ccc(O)c(O)c2)oc2cc(O)cc(O)c12` ?
[reply] 0.0

[ask] Also `O=C1C[C@@H](c2ccc(O)cc2)Oc2cc(O)cc(O)c21` ?
[reply] 0.0

[ask] Also `O=c1c(-c2ccc(O)cc2)coc2cc(O)ccc12` ?
[reply] 0.0

[ask] Also `O=c1cc(-c2ccccc2)oc2cc(O)c(O)c(O)c12` ?
[reply] 1.0

[ask] Also `O=c1c(-c2ccc(O)cc2)coc2cc(O)cc(O)c12` ?
[reply] 0.0

---

tested on: Caco-2 cell monolayer; assay: Cellular accumulation (CA) of flavonoids in Caco-2 cell monolayer; conditions: accumulated in cell monolayer after transport apical to basolateral, 40 μM, 1 h, normalized to cellular protein, mean ± SD, n = 3
Would you mind telling me the reported CA A to B of each entry?
Write the value in µmol/g as a bare number.

[ask] Entry `O=c1c(-c2ccc(O)cc2)coc2cc(O)cc(O)c12` : reported CA A to B = ?
[reply] 1.415

[ask] Also `COc1ccc(-c2cc(=O)c3c(OC)c(OC)c(OC)c(OC)c3o2)cc1` ?
[reply] 2.706

[ask] Also O=c1cc(-c2ccc(O)cc2)oc2c([C@@H]3OC[C@H](O)[C@H](O)[C@H]3O)c(O)c([C@@H]3O[C@H](CO)[C@@H](O)[C@H](O)[C@H]3O)c(O)c12 [Compound 8, Schaftoside] ?
[reply] 0.024

[ask] Also `O=C(/C=C/c1ccc(O)cc1)c1ccc(O)cc1O` ?
[reply] 4.393

---

assay: Permeability (bidirectional transport) of flavonoids in Caco-2 cell monolayers; format: in vitro ADME; conditions: human, Caco-2, basolateral to apical, incubation 60 min, 37 °C, D-Hank's pH 7.4, mean ± SD, n = 3–6
Rule: measured Papp B→A at 60 min, 40 μM below 8 ×10⁻⁶ cm/s gets satisfied; anything equal to or greater than 8 ×10⁻⁶ cm/s gets not satisfied.

[ask] Hello, I'm reviewing records and need to know if Papp B→A at 60 min, 40 μM of `COc1ccc([C@@H]2CC(=O)c3c(O)cc(O)cc3O2)cc1O` is below 8 ×10⁻⁶ cm/s. Could you check?
[reply] not satisfied

[ask] Also `O=c1c(O)c(-c2cc(O)c(O)c(O)c2)oc2cc(O)cc(O)c12` ?
[reply] satisfied

[ask] Also `C[C@@H]1O[C@@H](O[C@H]2[C@H](Oc3cc(O)c4c(c3)O[C@H](c3ccc(O)cc3)CC4=O)O[C@H](CO)[C@@H](O)[C@@H]2O)[C@H](O)[C@H](O)[C@H]1O` ?
[reply] satisfied

[ask] Also `COc1cc(-c2oc3cc(O)cc(O)c3c(=O)c2O)ccc1O` ?
[reply] satisfied

[ask] Also `O=C1C[C@@H](c2ccc(O)cc2)Oc2cc(O)ccc21` ?
[reply] not satisfied

[ask] Also `O=c1cc(-c2ccccc2)oc2cc(O)cc(O)c12` ?
[reply] not satisfied

[ask] Also `O=c1c(-c2ccc(O)cc2)coc2c([C@@H]3O[C@H](CO)[C@@H](O)[C@H](O)[C@H]3O)c(O)ccc12` ?
[reply] satisfied

---

Would you mind telling me the reported viability at 24 h, 40 μM of each entry?
test: Cell viability (MTT) assay of flavonoids in Caco-2 cells; type: cell-based; settings: human
Write the value in % as a bare number.

[ask] Entry `COc1c(O)cc(O)c2c(=O)cc(-c3ccccc3)oc12` : reported viability at 24 h, 40 μM = ?
[reply] 97.7

[ask] Also `O=c1cc(-c2ccccc2)oc2cc(O)c(O)c(O)c12` ?
[reply] 96.7

[ask] Also `COc1ccc(-c2coc3cc(O)cc(O)c3c2=O)cc1` ?
[reply] 106

[ask] Also `COc1ccc(-c2coc3cc(O)ccc3c2=O)cc1` ?
[reply] 94.6

[ask] Also `COc1cc(-c2oc3cc(O)cc(O)c3c(=O)c2O)ccc1O` ?
[reply] 93.6

[ask] Also `COc1ccc(-c2cc(=O)c3c(OC)c(OC)c(OC)c(OC)c3o2)cc1` ?
[reply] 97.5

[ask] Also `O=C(/C=C/c1ccc(O)cc1)c1ccc(O)cc1O` ?
[reply] 99.2

[ask] Also O=c1cc(-c2ccc(O)cc2)oc2c([C@@H]3OC[C@H](O)[C@H](O)[C@H]3O)c(O)c([C@@H]3O[C@H](CO)[C@@H](O)[C@H](O)[C@H]3O)c(O)c12 [Compound 8, Schaftoside] ?
[reply] 103

[ask] Also `O=c1c(-c2ccc(O)cc2)coc2cc(O)cc(O)c12` ?
[reply] 103

[ask] Also `C[C@@H]1O[C@@H](Oc2c(-c3ccc(O)c(O)c3)oc3cc(O)cc(O)c3c2=O)[C@H](O)[C@H](O)[C@H]1O` ?
[reply] 98.4

[ask] Also `O=c1c(O)c(-c2ccc(O)cc2O)oc2cc(O)cc(O)c12` ?
[reply] 102

[ask] Also `O=c1c(O)c(-c2cc(O)c(O)c(O)c2)oc2cc(O)cc(O)c12` ?
[reply] 101

[ask] Also COc1ccc(-c2oc3cc(O)cc(O)c3c(=O)c2O)cc1 [Compound 13, Kaempferide] ?
[reply] 102

[ask] Also O=C1c2c(O)cc(O)cc2OC(c2ccc(O)c(O)c2)C1O (stereo not shown) ?
[reply] 99.5

[ask] Also `COc1ccc([C@@H]2CC(=O)c3c(O)cc(O)cc3O2)cc1O` ?
[reply] 100

[ask] Also `O=c1cc(-c2ccc(O)c(O)c2)oc2cc(O)cc(O)c12` ?
[reply] 101

[ask] Also `O=c1c(-c2ccc(O)cc2)coc2cc(O)ccc12` ?
[reply] 105

[ask] Also `O=c1cc(-c2ccccc2)oc2ccccc12` ?
[reply] 96.3

[ask] Also `O=c1c(O)c(-c2ccc(O)c(O)c2)oc2cc(O)cc(O)c12` ?
[reply] 102

[ask] Also `O=c1c(O)c(-c2ccc(O)cc2)oc2cc(O)cc(O)c12` ?
[reply] 100

[ask] Also `O=C1C[C@@H](c2ccc(O)cc2)Oc2cc(O)cc(O)c21` ?
[reply] 95.6

[ask] Also `O=c1cc(-c2ccc(O)cc2)oc2cc(O)cc(O)c12` ?
[reply] 101

[ask] Also `O=c1c(O)c(-c2ccccc2)oc2cc(O)cc(O)c12` ?
[reply] 106

[ask] Also `COc1cc2c(=O)c(-c3ccc(O)cc3)coc2cc1O` ?
[reply] 98.3

[ask] Also `O=c1cc(-c2ccccc2)oc2cc(O)cc(O)c12` ?
[reply] 103
